System: Candida albicans
ASSAY_COMMENT: Anti-fungal activity against Candida albicans 90023 assessed as inhibition of fungal growth
Assay type: functional
TEST_READOUT: MIC (µM)
Field format: number, assumed µM, no unit text.

Past entries and their recorded results:
stdin: Lookup: MIC / Candida albicans / CCOC(=O)C1=C(CN2CCN(C(=O)/C(=N/OC)c3csc(N)n3)CC2)NC(=O)NC1c1ccc(C#N)cc1 (stereo not drawn)
stdout: 115

stdin: Lookup: MIC / Candida albicans / CCOC(=O)C1=C(CN2CCN(C(=O)/C(=N/OC)c3csc(N)n3)CC2)NC(=O)NC1c1ccc(OC)cc1 (stereo not drawn)
stdout: 7

stdin: Lookup: MIC / Candida albicans / CCOC(=O)C1=C(CN2CCN(C(=O)/C(=N/OC)c3csc(N)n3)CC2)NC(=O)NC1c1ccc(O)c(Br)c1 (stereo not drawn)
stdout: 104

stdin: Lookup: MIC / Candida albicans / CCCCc1nc(Cl)c(C2NC(=O)NC(CN3CCN(CC(=O)c4ccc(Cl)cc4)CC3)=C2C(=O)OCC)[nH]1 (stereo not drawn)
stdout: 14

stdin: Lookup: MIC / Candida albicans / CCCCc1nc(Cl)c(C2NC(=O)NC(CN3CCN(CC(=O)c4ccc(C)cc4)CC3)=C2C(=O)OCC)[nH]1 (stereo not drawn)
stdout: 230

stdin: Lookup: MIC / Candida albicans / CCOC(=O)C1=C(CN2CCN(C(=O)/C(=N/OC)c3csc(N)n3)CC2)NC(=O)NC1c1ccc(C(F)(F)F)cc1 (stereo not drawn)
stdout: 7

stdin: Lookup: MIC / Candida albicans / CCOC(=O)C1=C(CN2CCN(C(=O)/C(=N/OC)c3csc(N)n3)CC2)NC(=O)NC1c1cccs1 (stereo not drawn)
stdout: 480

Continue with the next compound.
stdin: Lookup: MIC / Candida albicans / CCCCc1nc(Cl)c(C2NC(=O)NC(CN3CCN(CC(=O)c4ccc(F)cc4)CC3)=C2C(=O)OCC)[nH]1 (stereo not drawn)
stdout: 29

* * *

Each item that follows carries a reported MIC.
System: Escherichia coli
ASSAY_COMMENT: Anti-bacterial activity against Escherichia coli ATCC 25922 assessed as inhibition of bacterial growth
Format: functional
Field format: number, assumed µM, no unit text.

Past entries and their recorded results:
stdin: Lookup: MIC / Escherichia coli / CCOC(=O)C1=C(CN2CCN(C(=O)/C(=N/OC)c3csc(N)n3)CC2)NC(=O)NC1c1ccc(O)c(Br)c1 (stereo not given)
stdout: 52

stdin: Lookup: MIC / Escherichia coli / CCCCc1nc(Cl)c(C2NC(=O)NC(CN3CCN(CC(=O)c4ccc(Cl)cc4)CC3)=C2C(=O)OCC)[nH]1 (stereo not given)
stdout: 111

stdin: Lookup: MIC / Escherichia coli / CCOC(=O)C1=C(CN2CCN(C(=O)/C(=N/OC)c3csc(N)n3)CC2)NC(=O)NC1c1cccc(O)c1 (stereo not given)
stdout: 59

stdin: Lookup: MIC / Escherichia coli / CCOC(=O)C1=C(CN2CCNCC2)NC(=O)NC1c1ccc2c(c1)c1ccccc1n2CC (stereo not given)
stdout: 222

Continue with the next compound.
stdin: Lookup: MIC / Escherichia coli / CCOC(=O)C1=C(CN2CCN(C(=O)/C(=N/OC)c3csc(N)n3)CC2)NC(=O)NC1c1ccc(Cl)cc1Cl (stereo not given)
stdout: 54

* * *

ASSAY_COMMENT: Hemolysis in human RBC assessed as hemolysis rate at effective bactericidal concentration for 3 hrs
Format: toxicity, cell-based, Erythrocyte
CONDITION_LABEL: red blood cells, read-out: Activity
TEST_READOUT: hemolysis at 3 h

stdin: Recorded hemolysis at 3 h of CCCCc1nc(Cl)c(C2NC(=O)NC(CN3CCN(C(=O)/C(=N/OC)c4csc(N)n4)CC3)=C2C(=O)OCC)[nH]1 (stereo unspecified) , please.
stdout: < 5%

* * *

ASSAY_COMMENT: Hemolysis in human RBC assessed as hemolysis rate at 128 times of MIC concentration for 6 hrs
Type: toxicity, cell-based, Erythrocyte
CONDITION_LABEL: red blood cells, read-out: Activity
TEST_READOUT: hemolysis at 6 h, 128 x MIC (%)
Field format: number, assumed %, no unit text.

stdin: Recorded hemolysis at 6 h, 128 x MIC of CCCCc1nc(Cl)c(C2NC(=O)NC(CN3CCN(C(=O)/C(=N/OC)c4csc(N)n4)CC3)=C2C(=O)OCC)[nH]1 (stereo unspecified) , please.
stdout: 0.8

* * *

Each item that follows carries a reported MIC.
Tested on: Enterococcus faecalis
ASSAY_COMMENT: Anti-bacterial activity against Enterococcus faecalis V583 assessed as inhibition of bacterial growth
Type: functional
Field format: number, assumed µM, no unit text.

Past entries and their recorded results:
stdin: Recorded MIC of CCOC(=O)C1=C(CN2CCN(C(=O)/C(=N/OC)c3csc(N)n3)CC2)NC(=O)NC1c1ccc(F)cc1 (stereo unspecified) , please.
stdout: 29

stdin: Recorded MIC of CCOC(=O)C1=C(CN2CCN(C(=O)/C(=N/OC)c3csc(N)n3)CC2)NC(=O)NC1c1cccs1 (stereo unspecified) , please.
stdout: 120

stdin: Recorded MIC of CCOC(=O)C1=C(CN2CCN(C(=O)/C(=N/OC)c3csc(N)n3)CC2)NC(=O)NC1c1ccc(O)c(OC)c1 (stereo unspecified) , please.
stdout: 14

stdin: Recorded MIC of CCCCc1nc(Cl)c(C2NC(=O)NC(CN3CCN(CC(=O)c4ccccc4)CC3)=C2C(=O)OCC)[nH]1 (stereo unspecified) , please.
stdout: 236

stdin: Recorded MIC of CCOC(=O)C1=C(CN2CCN(C(=O)/C(=N/OC)c3csc(N)n3)CC2)NC(=O)NC1c1ccc(OC)cc1 (stereo unspecified) , please.
stdout: 58

stdin: Recorded MIC of CCCCc1nc(Cl)c(C2NC(=O)NC(CN3CCN(CC(=O)c4ccc(F)cc4)CC3)=C2C(=O)OCC)[nH]1 (stereo unspecified) , please.
stdout: 57

stdin: Recorded MIC of CCOC(=O)C1=C(CN2CCN(C(=O)/C(=N/OC)c3csc(N)n3)CC2)NC(=O)NC1c1cccc(O)c1 (stereo unspecified) , please.
stdout: 15

stdin: Recorded MIC of CCOC(=O)C1=C(CN2CCN(C(=O)/C(=N/OC)c3csc(N)n3)CC2)NC(=O)NC1c1ccc(Cl)cc1Cl (stereo unspecified) , please.
stdout: 27

stdin: Recorded MIC of CCOC(=O)C1=C(CN2CCN(C(=O)/C(=N/OC)c3csc(N)n3)CC2)NC(=O)NC1c1ccc(F)cc1F (stereo unspecified) , please.
stdout: 28

stdin: Recorded MIC of CCCCc1nc(Cl)c(C2NC(=O)NC(CN3CCN(CC(=O)c4nccs4)CC3)=C2C(=O)OCC)[nH]1 (stereo unspecified) , please.
stdout: 117

Others:
stdin: Recorded MIC of CCCCc1nc(Cl)c(C2NC(=O)NC(CN3CCN(C(=O)/C(=N/OC)c4csc(N)n4)CC3)=C2C(=O)OCC)[nH]1 (stereo unspecified) , please.
stdout: 13

stdin: Recorded MIC of CCOC(=O)C1=C(CN2CCNCC2)NC(=O)NC1c1ccc2c(c1)c1ccccc1n2CC (stereo unspecified) , please.
stdout: 28

stdin: Recorded MIC of CCCCc1nc(Cl)c(C2NC(=O)NC(CN3CCN(CC(=O)c4ccc(Cl)cc4)CC3)=C2C(=O)OCC)[nH]1 (stereo unspecified) , please.
stdout: 222

stdin: Recorded MIC of CCOC(=O)C1=C(CN2CCN(C(=O)/C(=N/OC)c3csc(N)n3)CC2)NC(=O)NC1c1ccc(C#N)cc1 (stereo unspecified) , please.
stdout: 29

stdin: Recorded MIC of CCCCc1nc(Cl)c(C2NC(=O)NC(CN3CCN(CC(=O)c4ccc(C)cc4)CC3)=C2C(=O)OCC)[nH]1 (stereo unspecified) , please.
stdout: 58

stdin: Recorded MIC of CCOC(=O)C1=C(CN2CCN(C(=O)/C(=N/OC)c3csc(N)n3)CC2)NC(=O)NC1c1ccc(OC)c(OC)c1OC (stereo unspecified) , please.
stdout: 208

stdin: Recorded MIC of CCOC(=O)C1=C(CN2CCN(C(=O)/C(=N/OC)c3csc(N)n3)CC2)NC(=O)NC1c1ccc(O)c(Br)c1 (stereo unspecified) , please.
stdout: 13

stdin: Recorded MIC of CCOC(=O)C1=C(CN2CCN(C(=O)/C(=N/OC)c3csc(N)n3)CC2)NC(=O)NC1c1ccc(C(F)(F)F)cc1 (stereo unspecified) , please.
stdout: 27

stdin: Recorded MIC of CCOC(=O)C1=C(CN2CCN(C(=O)/C(=N/OC)c3csc(N)n3)CC2)NC(=O)NC1c1nccs1 (stereo unspecified) , please.
stdout: 240

stdin: Recorded MIC of CCn1cc(C(=O)O)c(=O)c2cc(F)c(N3CCNCC3)cc21 [NORFLOXACIN] , please.
stdout: 6

stdin: Recorded MIC of CCOC(=O)C1=C(CN2CCN(C(=O)/C(=N/OC)c3csc(N)n3)CC2)NC(=O)NC1c1ccc(N(C)C)cc1 (stereo unspecified) , please.
stdout: 28

Origin of values: ChEMBL document CHEMBL5505979
